Property: growth; scope: individual compounds
system: SF-295 CNS; test: NCI-60 one-dose screen, 48 h (100 = growth as untreated, 0 = no growth, -100 = all killed); details: 10 µM unless noted
This is part of a sample that, as a whole, favours compounds with a hit. Of some 83,000 tested, about 20% had one in any assay.
Measured Property: growth (%)

                                    compound  assay_target  observed_result
 0         CN(C)Cc1c(-c2ccccc2)[nH]c2ccccc12    SF-295 CNS             92.7
 1                  Nc1nc(N)nc(NCc2ccccc2)n1    SF-295 CNS              100
 2          CCCOc1nc(SCCC)nc2c1cnn2-c1ccccc1    SF-295 CNS              108
 3  O=C(O)c1ccc[n+](CC(=O)N2CCN(c3cc4c(cc3F)c(=O)c(C(=O)O)cn4C3CC3)CC2)c1    SF-295 CNS              116
 4              CCCCCCCCCCCCCCCCCCOc1ccccc1N    SF-295 CNS             54.3
 5  O=C(/C=C/c1ccc[nH]1)c1ccc(-n2ccc(C(F)(F)F)n2)cc1    SF-295 CNS             70.2
 6  Clc1ccc(N2N=C(c3cccc(Nc4ccncc4)c3)CC2c2ccccc2)cc1 (configuration not stated)    SF-295 CNS              102
 7  CCN(CC)CCCC(C)Nc1cc(-c2cccc(OC(F)(F)F)c2)nc2ccc(N3CCCC3)cc12 (configuration not stated)    SF-295 CNS             28.3
 8  COc1ccc(C(O)c2cc3c(N)c(C(=O)Nc4cccc(Br)c4C)sc3nc2C)cc1 (configuration not stated)    SF-295 CNS             18.5
 9          O=C(Nc1ccccc1)Oc1ccccc1-c1ccccc1    SF-295 CNS             97.4
10  O=c1[nH]c2c(s1)CCCC2CN1CCCCC1 (configuration not stated)    SF-295 CNS              104
11  COc1cc(CNC(=O)CCCCC[P+](c2ccccc2)(c2ccccc2)c2ccccc2)c(OC)c2c1OCO2    SF-295 CNS             87.2
12  COc1ccc(Cn2nc3c(c2-c2cc(OC)c(OC)c(OC)c2)-c2oncc2CC3)cc1    SF-295 CNS             77.2
13  O=C(CCN1CCCC1)Nc1ccc2c(Nc3ccccc3)c3ccccc3nc2c1    SF-295 CNS             33.4
14  Cc1cn(-c2cc(C(=O)Nc3cccc(C#Cc4cccc5[nH]nc(N)c45)c3)cc(C(F)(F)F)c2)cn1    SF-295 CNS             67.2
15  Cc1ccc(-c2csc(/N=C3\C(=O)Nc4ccccc43)n2)cc1    SF-295 CNS             13.9
16                CC(=O)CCSc1ccc(OC(C)=O)cc1    SF-295 CNS              105
17  CCCCN(CCCC)CCc1c(C)cc(C)c(CCN(CCCC)CCCC)c1O    SF-295 CNS             31.3
18  CCN(CC)CCCC(C)Nc1c2c(nc3ccc(OC)cc13)CCCC2 (configuration not stated)    SF-295 CNS               78
19  COc1cc2nc(-c3ccc(C(F)(F)F)cc3)cc(OCCCN3CCCCC3)c2cc1OC    SF-295 CNS            -46.8
20  COc1ccc(C2CC(n3nnnc3-c3ccccc3)=NN2)cc1 (configuration not stated)    SF-295 CNS             27.2
21                COc1ccccc1OCC(=O)N1CCCCCC1    SF-295 CNS              106
